ASSAY_TARGET: RVV-X (Russell's viper venom factor X activator) (UniProt Q7LZ61;Q4PRD1;Q4PRD2 Q7LZ61:189-619,Q4PRD1:24-146,Q4PRD2:25-158)
MEASUREMENT_PROTOCOL: EMSA; prion binding component alone
EXPERIMENTAL_PARAMETERS: tags: Haematologic Technologies; label: 32P end; two loops and two short stems
EXPERIMENTAL_READOUT: Kd

[in] Endpoint output: Kd of B-end (PrPSc binding region) (ssRNA) RNA: GGGAGACAAGACUAGACGCUCAACUACGAACUCAUGACACAAGGAUGCAAUCUCAUCCCG . Value?
[out] 0.17 µM
